# EC50 (read off the curve) per record follows
Target: T1, tau phospho-peptide of the direct ELISA of Example 11
T1 construct: also called pT217 peptide; pT212/pT217 peptide
Test: direct ELISA on plate-coated tau phospho-peptide (10 ng/mL), detection with HRPO-labelled anti-Fab antibody

Examples with answers:
binder: B333 (antibody, human IgG1, kappa, V domains shown, also called PT1B333) VH: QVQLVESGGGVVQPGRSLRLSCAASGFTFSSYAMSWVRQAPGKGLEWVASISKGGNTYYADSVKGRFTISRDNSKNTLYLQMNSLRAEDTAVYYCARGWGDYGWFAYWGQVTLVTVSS VL: DIQMTQSPSSLSASVGDRVTITCKASQDINRWLNWFQQKPGKAPKSLIYRANRLLDGVPSRFSGSGSGTDFTLTISSLQPEDFATYYCLQYDEFPLTFGQGTKLEIKR
recorded-result: ~90 pM
//
binder: B711 (antibody, human IgG1, kappa, V domains shown, also called PT1B711) VH: QVQLVESGGGVVQPGRSLRLSCAASGFTFTSYAMSWVRQAPGKGLEWVASITKGGNTYYADSVKGRFTISRDNSKNTLYLQMNSLRAEDTAVYYCARGWGIYGWFAYWGQVTLVTVSS VL: DIQMTQSPSSLSASVGDRVTITCKASQDINRWLNWFQQKPGKAPKSLIYRANRLLDGVPSRFSGSGSGTDFTLTISSLQPEDFATYYCLQYDEFPLTFGQGTKLEIKR
recorded-result: ~40 pM
//
binder: B809 (antibody, human IgG1, kappa, V domains shown, also called PT1B809) VH: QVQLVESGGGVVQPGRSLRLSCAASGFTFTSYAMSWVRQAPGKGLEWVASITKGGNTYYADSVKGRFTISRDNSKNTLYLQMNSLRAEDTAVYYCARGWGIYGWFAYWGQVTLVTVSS VL: DIQMTQSPSSLSASVGDRVTITCKASQDINRYLNWFQQKPGKAPKSLIYRANRLLDGVPSRFSGSGSGTDFTLTISSLQPEDFATYYCLQYDEFPLTFGQGTKLEIKR
recorded-result: ~60 pM

Field: next binder
Query: What EC50 (read off the curve) value was documented for this binder, B296 (antibody, human IgG1, kappa, V domains shown, Humanized PT3, human IgG1/kappa; also called VH92/VL77; HFA-PT3) VH: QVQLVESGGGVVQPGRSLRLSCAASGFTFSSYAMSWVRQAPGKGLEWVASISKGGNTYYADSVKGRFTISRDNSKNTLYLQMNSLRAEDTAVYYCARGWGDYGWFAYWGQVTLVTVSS VL: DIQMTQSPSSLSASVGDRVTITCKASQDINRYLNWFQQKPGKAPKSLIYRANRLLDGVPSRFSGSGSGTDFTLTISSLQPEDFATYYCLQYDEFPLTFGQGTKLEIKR ?
Reply: ~300 pM

# credit: patent US20230047413A1
